Here, each record is paired with measured melting point data.

{"molecule": "O=C(CN1C(=O)C2(COc3ccc(Br)cc32)c2ccccc21)Nc1ccccc1F (centres unmarked) [Example 3.10]", "melting point": "100 to 103 °C"}
{"molecule": "O=C1N(Cc2ccc(C(F)(F)F)o2)c2ccc(F)cc2C12COc1cc3c(cc12)OCO3 (centres unmarked) [Example 1.26]", "melting point": "139 to 141 °C"}
{"molecule": "CC1(C)COc2cc3c(cc21)C1(CO3)C(=O)N(Cc2ccc(C(F)(F)F)o2)c2ccccc21 (centres unmarked) [Example 10.21]", "melting point": "155 to 160 °C"}
{"molecule": "CS(=O)(=O)N1C(=O)C2(COc3cc4c(cc32)OCO4)c2ccccc21 (centres unmarked) [Example 10.93]", "melting point": "215 to 217 °C"}
{"molecule": "Cl.O=C1N(Cc2cccnc2)c2ccccc2C12COc1cc(OC(F)(F)F)ccc12 (centres unmarked)", "melting point": "151 to 153 °C"}
{"molecule": "CCCN1C(=O)C2(COc3cc4c(cc32)OCO4)c2ccccc21 (centres unmarked) [Example 10.40]", "melting point": "158 to 160 °C"}
{"molecule": "O=C1N(Cc2ccc(-c3ccccc3Cl)o2)c2ccccc2C12COc1cc3c(cc12)OCO3 (centres unmarked) [Example 10.64]", "melting point": "148 to 150 °C"}
{"molecule": "O=C1N(Cc2ccccn2)c2cccc(Br)c2C12COc1cc3c(cc12)CCO3 (centres unmarked) [Example 1.25]", "melting point": "> 200 °C"}

---

Here, each record is paired with measured melting point data.
measure: melting point

{"compound": "O=C(CN1C(=O)C2(COc3ccc(-c4cccnc4)cc32)c2ccccc21)Nc1ccccc1F (stereo not shown)", "measure": "melting point", "observedResult": "98 to 100 °C"}
{"compound": "Cl.O=C1N(Cc2ccc(C(F)(F)F)o2)c2ccccc2C12COc1ccc(-c3cccnc3)cc12 (stereo not shown)", "measure": "melting point", "observedResult": "98 to 100 °C"}
{"compound": "CCCCCN1C(=O)C2(COc3cc4c(cc32)OCO4)c2c(C(=O)Nc3cccc(OC)c3)cccc21 (stereo not shown)", "measure": "melting point", "observedResult": "173 to 175 °C"}
{"compound": "Cc1ccc2c(c1)C1(COc3cc4c(cc31)OCO4)C(=O)N2 (stereo not shown)", "measure": "melting point", "observedResult": "269 to 271 °C"}
{"compound": "CCCCCN1C(=O)C2(COc3cc(F)c(Cl)cc32)c2ccccc21 (stereo not shown)", "measure": "melting point", "observedResult": "74 to 76 °C"}
{"compound": "O=C1N(CCCCl)c2ccccc2C12COc1cc3c(cc12)OCO3 (stereo not shown)", "measure": "melting point", "observedResult": "144 to 146 °C"}
{"compound": "CC(C)(C)OC(=O)N1CCC(CN2C(=O)C3(COc4cc5c(cc43)C(C)(C)CO5)c3ccccc32)CC1 (stereo not shown)", "measure": "melting point", "observedResult": "65 to 75 °C"}
{"compound": "Cl.O=C1N(CCC2CCN(C3CCCC3)CC2)c2ccccc2C12COc1cc3c(cc12)OCO3 (stereo not shown)", "measure": "melting point", "observedResult": "153 to 155 °C"}
{"compound": "O=C1N(Cc2cccc(OC(F)(F)F)c2)c2ccccc2C12COc1cc3c(cc12)OCO3 (stereo not shown)", "measure": "melting point", "observedResult": "88 to 91 °C"}
{"compound": "COc1ccc2c(c1)C1(CO2)C(=O)N(C)c2ccccc21 (stereo not shown)", "measure": "melting point", "observedResult": "159 to 161 °C"}
{"compound": "O=C1N(Cc2ccccc2OC(F)(F)F)c2ccccc2C12COc1cc3c(cc12)OCO3 (stereo not shown)", "measure": "melting point", "observedResult": "130 to 135 °C"}
{"compound": "Cn1cc(CN2C(=O)C3(COc4cc5c(cc43)OCO5)c3ccccc32)ccc1=O (stereo not shown)", "measure": "melting point", "observedResult": "115 to 118 °C"}
{"compound": "Cl.O=C1N(CCN2CCCCC2)c2ccccc2C12COc1cc3c(cc12)OCO3 (stereo not shown)", "measure": "melting point", "observedResult": "> 240 °C"}
{"compound": "Cl.O=C1N(CCC2CCN(C3CCOCC3)CC2)c2ccccc2C12COc1cc3c(cc12)OCO3 (stereo not shown)", "measure": "melting point", "observedResult": "168 to 170 °C"}
{"compound": "O=C1Nc2ccccc2C12COc1cc3c(cc12)CCO3 (stereo not shown)", "measure": "melting point", "observedResult": "208 to 210 °C"}
{"compound": "CCCCCN1C(=O)C2(COc3cc4c(cc32)OCO4)c2c(Cl)ccc(Cl)c21 (stereo not shown)", "measure": "melting point", "observedResult": "106 to 108 °C"}
{"compound": "O=C1N(Cc2ccc(C(F)(F)F)o2)c2ccccc2C12COc1cc(OC(F)(F)F)ccc12 (stereo not shown)", "measure": "melting point", "observedResult": "78 to 80 °C"}
{"compound": "O=C1N(Cc2ccc(C(F)(F)F)o2)c2cccc(Br)c2C12COc1cc3c(cc12)CCO3 (stereo not shown)", "measure": "melting point", "observedResult": "182 to 184 °C"}
{"compound": "CC(C)(C)OC(=O)N1CCCC(c2ccc3c(c2)C2(CO3)C(=O)Nc3ccccc32)C1 (stereo not shown)", "measure": "melting point", "observedResult": "120 to 123 °C"}
{"compound": "CS(=O)(=O)c1ccc(CN2C(=O)C3(COc4cc5c(cc43)OCO5)c3ccccc32)o1 (stereo not shown)", "measure": "melting point", "observedResult": "177 to 179 °C"}
{"compound": "O=C1N(Cc2ccc(Cl)o2)c2ccccc2C12COc1cc3c(cc12)OCO3 (stereo not shown)", "measure": "melting point", "observedResult": "148 to 150 °C"}
{"compound": "CCCCCN1C(=O)C2(OCc3cc4c(cc32)OCO4)c2ccccc21 (stereo not shown)", "measure": "melting point", "observedResult": "113 to 115 °C"}
{"compound": "O=C1N(Cc2ccc(C(F)(F)F)o2)c2cccc(-c3ccoc3)c2C12COc1cc3c(cc12)CCO3 (stereo not shown)", "measure": "melting point", "observedResult": "167 to 169 °C"}
{"compound": "N#Cc1ccc(CN2C(=O)C3(COc4cc5c(cc43)OCO5)c3ccccc32)o1 (stereo not shown)", "measure": "melting point", "observedResult": "167 to 169 °C"}
{"compound": "O=C1Nc2cccc(-c3ccoc3)c2C12COc1cc3c(cc12)OCO3 (stereo not shown)", "measure": "melting point", "observedResult": "270 to 272 °C"}
{"compound": "O=C1Nc2ccccc2C12COc1cc3c(cc12)OCO3 (stereo not shown)", "measure": "melting point", "observedResult": "252 °C (dec.)"}
{"compound": "O=C(CN1C(=O)C2(COc3cc4c(cc32)CCO4)c2c(-c3cncnc3)cccc21)Nc1ccccc1F (stereo not shown)", "measure": "melting point", "observedResult": "229 to 230 °C"}
{"compound": "O=C1N(Cc2nc3cc(F)ccc3[nH]2)c2ccccc2C12COc1cc3c(cc12)OCO3 (stereo not shown)", "measure": "melting point", "observedResult": "138 to 142 °C"}
{"compound": "COc1ccc(CN2C(=O)C3(COc4cc(OC(F)(F)F)ccc43)c3ccccc32)cc1 (stereo not shown)", "measure": "melting point", "observedResult": "82 to 84 °C"}
{"compound": "CC(C)c1nc(CN2C(=O)C3(COc4cc5c(cc43)OCO5)c3ccccc32)co1 (stereo not shown)", "measure": "melting point", "observedResult": "118 to 120 °C"}
{"compound": "O=C1N(Cc2ccccn2)c2cccc(-c3ccoc3)c2C12COc1cc3c(cc12)CCO3 (stereo not shown)", "measure": "melting point", "observedResult": "195 to 197 °C"}
{"compound": "O=C1N(Cc2ccc(C(F)(F)F)o2)c2ccccc2C12COc1cc3c(cc12)OCC3 (stereo not shown)", "measure": "melting point", "observedResult": "174 to 177 °C"}
{"compound": "CC1(C)COc2cc3c(cc21)C1(CO3)C(=O)N(Cc2cccnc2)c2ccccc21.Cl (stereo not shown)", "measure": "melting point", "observedResult": "124 to 126 °C"}
{"compound": "CC(C)N1CCC(CN2C(=O)C3(COc4cc5c(cc43)OCO5)c3cccc(F)c32)CC1.Cl (stereo not shown)", "measure": "melting point", "observedResult": "157 to 160 °C"}
